Data provenance is ChEMBL document CHEMBL1136471.

assay: Sensitivity value towards cyclodextrin conjugated peptide (with pyrene) at 25 degrees Centigrade; design: concentration or dose not given beside the values
measured.property: Change in sensitivity
Reply with the value as a number alone.

{"columns": ["compound", "Change in sensitivity"],
 "data": [
  ["C[C@H](CCC(=O)O)[C@H]1CC[C@H]2[C@@H]3C[C@H](O)[C@@H]4C[C@H](O)CC[C@]4(C)[C@H]3CC[C@]12C", 0.4]
]}

The recorded Change in sensitivity for C[C@H](CCC(=O)O)[C@H]1CC[C@H]2[C@@H]3CC[C@@H]4C[C@H](O)CCC4(C)[C@H]3C[C@H](O)[C@]12C (single isomer, unassigned) is 0.01

The recorded Change in sensitivity for "C[C@H](CCC(=O)O)[C@H]1CC[C@H]2[C@@H]3[C@H](O)C[C@@H]4C[C@H](O)CC[C@]4(C)[C@H]3CC[C@]12C" is 0.16

The recorded Change in sensitivity for "C[C@H](CCC(=O)O)[C@H]1CC[C@H]2[C@@H]3CC[C@@H]4C[C@H](O)CC[C@]4(C)[C@H]3CC[C@]12C" is 0.45

The recorded Change in sensitivity for "C[C@H](CCC(=O)O)[C@H]1CC[C@H]2[C@@H]3[C@H](O)C[C@@H]4C[C@H](O)CC[C@]4(C)[C@H]3C[C@H](O)[C@]12C" is 0.008

The recorded Change in sensitivity for "C[C@H](CCC(=O)O)[C@H]1CC[C@H]2[C@@H]3[C@@H](O)C[C@@H]4C[C@H](O)CC[C@]4(C)[C@H]3CC[C@]12C" is 0.4
